test system: A375 Sensitive cells; test: Viability test, trypan blue exclusion, A375 Sensitive cells; assay type: cell-based, human; settings: Homo sapiens, A-375; 5 μM, 48 h; viable cells as percentage of DMSO control; read-out: Viab A375 5 μM/ 48 h
measurement-label: viability at 5 µM (%)
The reply should contain only the number, in %.

INPUT: Record request: viability at 5 µM value, item Cc1csc(NC(=N)NC(=N)c2cccc(Br)c2)n1
OUTPUT: 96.7

INPUT: Next: Cc1nc(NC(=N)NC(=N)c2ccccc2Cl)sc1C
OUTPUT: 60

INPUT: And N=C(NC(=N)c1ccccc1Br)Nc1nc2ccccc2s1 ?
OUTPUT: 8.9

INPUT: Likewise for Nc1cccc(-c2nc(N)nc(Nc3ccccc3SSc3ccccc3Nc3nc(N)nc(-c4cccc(N)c4)n3)n2)c1 ?
OUTPUT: 69.5

INPUT: Same for Nc1nc(Nc2ccccc2SSc2ccccc2Nc2nc(N)nc(-c3cscc3Br)n2)nc(-c2cscc2Br)n1
OUTPUT: 33.7

INPUT: Try this molecule next: N=C(NC(=N)c1ccnc(Cl)c1)Nc1nc2ccccc2s1
OUTPUT: 4.9

INPUT: Same thing, different molecule: COc1ccc(C(=N)NC(=N)Nc2nc(C)cs2)cc1
OUTPUT: 83.3

INPUT: // next record Nc1nc(Cc2ccccc2)nc(Nc2ccccc2SSc2ccccc2Nc2nc(N)nc(Cc3ccccc3)n2)n1
OUTPUT: 35.4

INPUT: Next molecule up: Cc1csc(NC(=N)NC(=N)c2ccccn2)n1
OUTPUT: 90.4

INPUT: Request: N=C(NC(=N)C(Cl)(Cl)Cl)Nc1nc2ccccc2s1
OUTPUT: 20.7

INPUT: Try this molecule next: N=C(NC(=N)c1ccccc1Cl)Nc1nc2ccccc2s1
OUTPUT: 68

INPUT: Queued: CCOc1cccc(-c2nc(N)nc(Nc3ccccc3SSc3ccccc3Nc3nc(N)nc(-c4cccc(OCC)c4)n3)n2)c1
OUTPUT: 3.1

INPUT: Also check N=C(NC(=N)c1cccc(C(F)(F)F)c1)Nc1nc2ccccc2s1
OUTPUT: 52.9

INPUT: Cool, now N=C(NC(=N)c1ccc2ccccc2c1)Nc1nc2ccccc2s1
OUTPUT: 119

INPUT: Next molecule: Nc1nc(Nc2ccccc2O)nc(-c2cccc(Br)c2)n1
OUTPUT: 82.9

INPUT: Another molecule to check: COc1cccc(C(=N)NC(=N)Nc2nc3ccccc3s2)c1
OUTPUT: 8.6

INPUT: Repeat for the following molecule: Cc1csc(NC(=N)NC(=N)c2ccccc2Br)n1
OUTPUT: 86.7

INPUT: Same again, this time with Cc1csc(NC(=N)NC(=N)c2cccc(Cl)c2)n1
OUTPUT: 100

INPUT: Next: COc1cc(-c2nc(N)nc(Nc3ccccc3SSc3ccccc3Nc3nc(N)nc(-c4cc(OC)c(OC)c(OC)c4)n3)n2)cc(OC)c1OC
OUTPUT: 13

INPUT: Let us now turn to Nc1nc(Nc2ccccc2SSc2ccccc2Nc2nc(N)nc(-c3ccc(C(F)(F)F)cc3)n2)nc(-c2ccc(C(F)(F)F)cc2)n1
OUTPUT: 4.4

INPUT: Check N=C(NC(=N)c1cccnc1)Nc1nc2ccccc2s1 too.
OUTPUT: 5.2

INPUT: Quick one: CSc1ccccc1Nc1nc(N)nc(C(Cl)Cl)n1
OUTPUT: 58.7

INPUT: Also N=C(NC(=N)c1ccccc1)Nc1nc(-c2ccccc2)cs1 , if possible.
OUTPUT: 81

INPUT: Also check Nc1nc(Nc2ccccc2SSc2ccccc2Nc2nc(N)nc(-c3cc4c(cc3Br)OCO4)n2)nc(-c2cc3c(cc2Br)OCO3)n1
OUTPUT: 86.8

INPUT: Please answer likewise for Nc1nc(Nc2ccccc2SSc2ccccc2Nc2nc(N)nc(-c3ccccn3)n2)nc(-c2ccccn2)n1
OUTPUT: 34.5

INPUT: Try the molecule Nc1nc(Nc2ccccc2O)nc(-c2cccc(Cl)c2)n1
OUTPUT: 87.6

INPUT: Do the same for COc1ccc(C(=N)NC(=N)Nc2nc(-c3ccccc3)cs2)cc1 please
OUTPUT: 43.7

INPUT: Query Nc1nc(Nc2ccccc2SSc2ccccc2Nc2nc(N)nc(-c3ccccc3F)n2)nc(-c2ccccc2F)n1 next
OUTPUT: 60.5

INPUT: Likewise for N=C(NC(=N)c1ccc(Cl)nc1)Nc1nc2ccccc2s1 ?
OUTPUT: 76.9

INPUT: What about this molecule? Cc1csc(NC(=N)NC(=N)c2ccncc2)n1
OUTPUT: 95.2

INPUT: Input N=C(NC(=N)c1ccc(I)cc1)Nc1nc2ccccc2s1
OUTPUT: 135

INPUT: Consider next the molecule N=C(NC(=N)c1cccc(Br)c1)Nc1nc2ccccc2s1 in the same way.
OUTPUT: 8.1

INPUT: What do you have for Nc1nc(Nc2ccc(F)cc2SSc2cc(F)ccc2Nc2nc(N)nc(C(Cl)(Cl)Cl)n2)nc(C(Cl)(Cl)Cl)n1 ?
OUTPUT: 17.4

INPUT: Queued: N=C(NC(=N)c1cnccn1)Nc1nc2ccccc2s1
OUTPUT: 1.8

----------
I'd appreciate it if you could supply viability at 5 µM values for the items below.
system: A375 Sensitive cells; experiment: Viability test, trypan blue exclusion, A375 Sensitive cells; type: cell-based, human; conditions: Homo sapiens, A-375; 5 μM, 48 h; viable cells as percentage of DMSO control; read-out: Viab A375 5 μM/ 48 h
Use % as the unit, but write only the number.

INPUT: Quick one: viability at 5 µM of Cc1csc(NC(=N)NC(=N)c2ccc(Cl)cc2)n1 ?
OUTPUT: 155

INPUT: Param item: Cc1ccc(-c2nc(N)nc(Nc3ccccc3SSc3ccccc3Nc3nc(N)nc(-c4ccc(C)cc4)n3)n2)cc1
OUTPUT: 23.9

INPUT: Consider next the compound N=c1nc(C(Cl)(Cl)Cl)nc(Nc2ccccc2O)[nH]1 in the same way.
OUTPUT: 22.5

INPUT: How about this compound: Cc1ccc2nc(NC(=N)NC(=N)c3cccc(Br)c3)sc2c1
OUTPUT: 100

INPUT: Another compound to check: Nc1nc(Nc2ccccc2SSc2ccccc2Nc2nc(N)nc(-c3ccc4ccccc4c3)n2)nc(-c2ccc3ccccc3c2)n1
OUTPUT: 10.2

----------
system: A375 Sensitive cells; test: Viability test, trypan blue exclusion, A375 Sensitive cells; type: cell-based, human; settings: Homo sapiens, A-375; 10 μM, 24 h; viable cells as percentage of DMSO control; read-out: Viab A375 10 μM/ 24 h
measurement-label: viability at 10 µM (%)
A number alone suffices; assume %.

INPUT: Please report the recorded viability at 10 µM for COc1ccc(-c2nc(N)nc(Nc3ccccc3SSc3ccccc3Nc3nc(N)nc(-c4ccc(OC)cc4)n3)n2)cc1 .
OUTPUT: 12.9

INPUT: Try the compound Nc1nc(Nc2ccccc2SSc2ccccc2Nc2nc(N)nc(-c3cccnc3)n2)nc(-c2cccnc2)n1
OUTPUT: 60.1

INPUT: Follow-up entry: N=C(NC(=N)c1ccncc1)Nc1nc(-c2ccccc2)cs1
OUTPUT: 84

INPUT: Next up: N=C(NC(=N)c1ccccc1Cl)Nc1nc(-c2cccc([N+](=O)[O-])c2)cs1
OUTPUT: 73.9

INPUT: Also N=c1nc(C(Cl)(Cl)Cl)nc(Nc2ccccc2O)[nH]1 , if possible.
OUTPUT: 38.6

INPUT: Please do the same for N=C(NC(=N)c1cccs1)Nc1nc2ccccc2s1 as well.
OUTPUT: 90.6

INPUT: Next compound: N=C(NC(=N)c1cccc(Cl)c1)Nc1nc2ccccc2s1
OUTPUT: 12.1

INPUT: Further, for N=C(NC(=N)c1ccc2ccccc2c1)Nc1nc2ccccc2s1 ?
OUTPUT: 93.3

INPUT: Next compound: N=C(NC(=N)c1ccccc1)Nc1nc2ccccc2s1
OUTPUT: 80

INPUT: Also need N=C(NC(=N)c1ccccc1)Nc1nc(-c2ccccc2)cs1 , thanks.
OUTPUT: 88

INPUT: Follow-up entry: COc1cc(-c2nc(N)nc(Nc3ccccc3SSc3ccccc3Nc3nc(N)nc(-c4cc(OC)c(OC)c(OC)c4)n3)n2)cc(OC)c1OC
OUTPUT: 16.3

INPUT: Field entry: Cc1csc(NC(=N)NC(=N)c2cccc(Cl)c2)n1
OUTPUT: 77.8

INPUT: Try the compound N=C(NC(=N)c1ncc(Cl)cc1Cl)Nc1nc2ccccc2s1
OUTPUT: 75.8

INPUT: Try COc1ccc2nc(NC(=N)NC(=N)c3cccc(Br)c3)sc2c1 next.
OUTPUT: 89

INPUT: What would you report for N=C(NC(=N)c1ccc(Cl)nc1)Nc1nc2ccccc2s1 ?
OUTPUT: 95.7

INPUT: Then Nc1nc(Nc2ccccc2SSc2ccccc2Nc2nc(N)nc(C(Cl)(Cl)Cl)n2)nc(C(Cl)(Cl)Cl)n1 ?
OUTPUT: 23

INPUT: What do you have for COc1ccc(C(=N)NC(=N)Nc2nc(-c3ccccc3)cs2)cc1 ?
OUTPUT: 40.8

INPUT: Subsequent entry: N=C(NC(=N)c1ccc(Cl)cc1)Nc1nc(-c2cccc([N+](=O)[O-])c2)cs1
OUTPUT: 57.4

INPUT: Input Nc1nc(Nc2ccccc2O)nc(-c2cccc(Br)c2)n1
OUTPUT: 151
